Data provenance: patent US20260242735A1

Provide the reported Mean % WT Binding of each item.
molecular target: human CD33 T191A (human, UniProt P20138 18-364); test: alanine scan, flow cytometry, HEK293-T;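 also: antibody binding to each alanine-substituted CD33 mutant expressed transiently in HEK293-T, read as fluorescence minus background, mean of duplicates, relative to wild-type CD33 set as 100%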
Sequence (P20138 18-364 T191A limits assumed): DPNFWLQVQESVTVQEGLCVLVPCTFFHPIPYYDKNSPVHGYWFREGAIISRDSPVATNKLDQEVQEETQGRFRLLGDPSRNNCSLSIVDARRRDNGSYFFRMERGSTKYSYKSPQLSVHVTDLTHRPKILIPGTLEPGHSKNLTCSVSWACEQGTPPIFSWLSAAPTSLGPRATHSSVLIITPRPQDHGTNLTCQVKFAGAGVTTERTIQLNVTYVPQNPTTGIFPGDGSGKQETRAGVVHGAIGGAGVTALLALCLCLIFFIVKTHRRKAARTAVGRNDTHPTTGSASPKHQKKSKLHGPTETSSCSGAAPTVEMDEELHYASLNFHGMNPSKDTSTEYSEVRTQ
# value in %; strip the unit string

Req: Please give measured Mean % WT Binding of the following entry: Refmab #2 (antibody, V domains shown, In the alanine scan antibodies were used as IgG or Fab) VH: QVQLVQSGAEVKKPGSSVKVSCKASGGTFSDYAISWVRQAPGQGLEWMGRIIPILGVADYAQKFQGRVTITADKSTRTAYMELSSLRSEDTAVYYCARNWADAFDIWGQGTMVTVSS VL: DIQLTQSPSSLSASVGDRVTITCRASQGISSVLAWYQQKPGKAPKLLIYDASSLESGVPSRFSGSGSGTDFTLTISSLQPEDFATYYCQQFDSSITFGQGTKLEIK
Resp: 114

Req: Please give measured Mean % WT Binding of the following entry: Refmab #4 (antibody, V domains shown, In the alanine scan antibodies were used as IgG or Fab) VH: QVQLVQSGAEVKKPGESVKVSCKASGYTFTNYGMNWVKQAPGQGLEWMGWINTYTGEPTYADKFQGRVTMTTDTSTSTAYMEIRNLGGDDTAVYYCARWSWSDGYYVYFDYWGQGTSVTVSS VL: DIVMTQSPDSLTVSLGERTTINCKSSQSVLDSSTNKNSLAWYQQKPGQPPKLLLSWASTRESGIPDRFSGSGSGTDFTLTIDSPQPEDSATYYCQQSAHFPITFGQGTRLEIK
Resp: 95.1

Req: Please give measured Mean % WT Binding of the following entry: Refmab #1 (antibody, V domains shown, In the alanine scan antibodies were used as IgG or Fab; also called hP67.6) VH: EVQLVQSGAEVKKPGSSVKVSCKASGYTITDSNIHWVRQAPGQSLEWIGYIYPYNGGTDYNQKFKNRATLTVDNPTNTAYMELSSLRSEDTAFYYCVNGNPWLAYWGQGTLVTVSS VL: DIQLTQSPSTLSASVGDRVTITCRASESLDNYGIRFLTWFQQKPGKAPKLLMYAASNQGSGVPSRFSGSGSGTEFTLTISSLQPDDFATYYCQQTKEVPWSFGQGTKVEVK
Resp: 91.4

Req: Please give measured Mean % WT Binding of the following entry: Refmab #3 (antibody, V domains shown, In the alanine scan antibodies were used as IgG or Fab) VH: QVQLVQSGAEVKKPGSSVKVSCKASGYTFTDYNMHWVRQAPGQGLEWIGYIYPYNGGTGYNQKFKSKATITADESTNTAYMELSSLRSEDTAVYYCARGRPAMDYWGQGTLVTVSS VL: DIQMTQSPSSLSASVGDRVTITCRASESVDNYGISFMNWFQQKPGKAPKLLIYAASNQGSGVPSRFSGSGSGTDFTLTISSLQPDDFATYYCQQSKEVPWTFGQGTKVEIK
Resp: 80
